Cited source for all entries: PubChem BioAssay (NCI)

System: A498 renal
Assay: NCI tumour cell line growth inhibition, 48 h
Parameter threshold = 30 µM. Response is Condition met when TGI meets or exceeds it, else Condition not met.

1. Nc1nc(Cl)c(C=O)c(NCC2(CO)CCC2)n1	Condition met
2. COc1ccc(C(=O)c2cc(C)c(OC)c(C)c2)c(OC)c1N(C(=O)CCl)C(=O)CCl	Condition not met
3. CCOC(=O)/C=C(/C(=O)OCC)n1ccc(=O)n(CC(=O)OCC)c1=O	Condition not met
4. COc1cc(=O)oc(/C=C/C=C/C=C/C(C)=C\C2(C)OC(C)C(C)(O)C2O)c1C (centres undefined)	Condition met
5. COC(=O)/C=C/c1cnc2c(c1)oc(=O)n2C	Condition met
6. CCSc1nc(C)nc2c1sc1nc3ccccc3n12	Condition met
7. O=S(=O)(NCCNc1cc(-c2cn(-c3ccccc3)nc2-c2cccc(O)c2)ccn1)c1ccc(Br)cc1	Condition not met
8. C=CCOC1OC(CS(=O)(=O)O)C(OC(C)=O)C(OC(C)=O)C1OC(C)=O (centres undefined)	Condition met
9. COc1c(Cl)[c]([Hg][O]C(C)=O)c(NCC(C)=O)c(OC)[c]1[Hg][O]C(C)=O	Condition met
10. C#CCN(Cc1nc2cc(C(F)(F)F)ccc2nc1-c1ccccc1)c1ccc(F)cc1	Condition met
11. O=C(Nc1ccc(N2CCNCC2)cn1)c1[nH]ncc1Nc1ncnc2sccc12	Condition met
12. CC1(C)CC[C@]2(C(=O)O)CC[C@]3(C)C(=CC[C@@H]4[C@@]5(C)CC[C@H](OC6OC(CO)C(O)C(O)C6O)C(C)(C)[C@@H]5CC[C@]43C)[C@@H]2C1 (some centres undefined)	Condition not met
13. CCCCCCCCCCCCC(NC(C)=O)(C(=O)OCC)C(=O)OCC	Condition not met
14. COCC(=O)NC/C=C/c1ccc2ncnc(Nc3ccc(Oc4ccc(C)nc4)c(C)c3)c2c1	Condition met
15. COc1c(N2CCN(CN3C(=O)C(=O)c4ccccc43)C(C)C2)c(F)cc2c(=O)c(C(=O)O)cn(C3CC3)c12 (centres undefined)	Condition met
16. O=C(N[C@@H](Cc1ccccc1)B(O)O)[C@H](Cc1cccc2ccccc12)NC(=O)N1CCOCC1	Condition not met
17. NS(=O)(=O)c1ccc(N2C(=O)C(=O)N(c3ccccc3)C2=S)cc1	Condition met
18. COc1cc(C(=O)N(C(=S)OC23CC4CC(CC(C4)C2)C3)c2ccccc2)cc(OC)c1OC	Condition met

====

Tested on: HT29 colon
Test: NCI tumour cell line growth inhibition, 48 h
Measured TGI by item
MEASURE: TGI

1) CC(C)C1NC(=O)[C@H](C)OC(=O)[C@@H](C(C)C)NC(=O)[C@@H](C)OC(=O)C(C(C)C)NC(=O)[C@H](C)OC1=O (stereo not given in full)	> 100 µM
2) CCOC(=O)/C=C/c1c[nH]c(=O)[nH]c1=O	> 75 µM
3) NC(N)=NC(N)=Nc1ccc(S(N)(=O)=O)cc1	> 100 µM
4) O=S(=O)(NCCNc1cc(-c2cn(-c3ccccc3)nc2-c2cccc(O)c2)ccn1)c1ccc(Br)cc1	5.04 µM
5) CCOC(=O)C1=C(C)N(C2OC(COC(C)=O)C(OC(C)=O)C(OC(C)=O)C2OC(C)=O)C(=O)NC1c1ccccc1 (stereo not given)	> 100 µM
